assay: Plasma pharmacokinetics of; type: in vivo, Wistar rat; settings: Chronic Arm / Acute Arm, 30 min post dosing
Recorded Plasma concentration Ratio (C/A) values for a group of compounds are listed next.
MEASUREMENT_NAME: Plasma concentration Ratio (C/A)

{"COMPOUND": "N[C@@]1(c2ccccc2Cl)CCC[C@@H](O)C1=O [(2S,6S;2R,6R)-HNK, (2S,6S;2R,6R)-hydroxynorketamine]", "MEASUREMENT_NAME": "Plasma concentration Ratio (C/A)", "READING": 1.4}
{"COMPOUND": "NC1(c2ccccc2Cl)CC(O)CCC1=O [(2S,4R;2R,4S)-HNK, (2S,4R;2R,4S)-hydroxynorketamine]", "MEASUREMENT_NAME": "Plasma concentration Ratio (C/A)", "READING": 1.7}
{"COMPOUND": "NC1(c2ccccc2Cl)CCCCC1=O (racemic) [(R,S)-norKet, (R,S)-norketamine]", "MEASUREMENT_NAME": "Plasma concentration Ratio (C/A)", "READING": 0.62}
{"COMPOUND": "NC1(c2ccccc2Cl)CCCC(O)C1=O [(2S,6R;2R,6S)-HNK, (2S,6R;2R,6S)-hydroxynorketamine]", "MEASUREMENT_NAME": "Plasma concentration Ratio (C/A)", "READING": 4.5}

###

test: Plasma pharmacokinetics of; type: in vivo, Wistar rat; conditions: male, Wistar, rat, plasma, ip, 40 mg/kg
Recorded concentration at 30 min values for a group of compounds are listed next.
MEASUREMENT_NAME: concentration at 30 min (ng/mL)

{"COMPOUND": "NC1(c2ccccc2Cl)CCCCC1=O (racemic) [(R,S)-norKet, (R,S)-norketamine]", "MEASUREMENT_NAME": "concentration at 30 min", "UNIT_TAG": "ng/mL", "READING": 2130}
{"COMPOUND": "CNC1(c2ccccc2Cl)CCCCC1=O (racemic) [(R,S)-Ket, (R,S)-Ketamine, reference compound]", "MEASUREMENT_NAME": "concentration at 30 min", "UNIT_TAG": "ng/mL", "READING": 2780}

###

Recorded Plasma concentration between 5 min and 60 min post-administration values for a group of compounds are listed next.
test: Plasma pharmacokinetics of; format: in vivo, Wistar rat; settings: Acute: single ip 40 mg/kg (R,S)-Ket
MEASUREMENT_NAME: Plasma concentration between 5 min and 60 min post-administration

{"COMPOUND": "NC1(c2ccccc2Cl)CCCCC1=O (racemic) [(R,S)-norKet, (R,S)-norketamine]", "READING": "> 1,000 ng/ml"}
{"COMPOUND": "NC1(c2ccccc2Cl)CCC(O)CC1=O (stereo not shown)", "READING": "> 50 ng/mL"}
{"COMPOUND": "N[C@@]1(c2ccccc2Cl)CCC[C@@H](O)C1=O [(2S,6S;2R,6R)-HNK, (2S,6S;2R,6R)-hydroxynorketamine]", "READING": "> 1,000 ng/ml"}
{"COMPOUND": "NC1(c2ccccc2Cl)CC(O)CCC1=O [(2S,4R;2R,4S)-HNK, (2S,4R;2R,4S)-hydroxynorketamine]", "READING": "> 50 ng/mL"}
{"COMPOUND": "NC1(c2ccccc2Cl)CCCC(O)C1=O [(2S,6R;2R,6S)-HNK, (2S,6R;2R,6S)-hydroxynorketamine]", "READING": "> 50 ng/mL"}
{"COMPOUND": "CNC1(c2ccccc2Cl)CCCCC1=O (racemic) [(R,S)-Ket, (R,S)-Ketamine, reference compound]", "READING": "> 1,000 ng/ml"}
{"COMPOUND": "NC1(c2ccccc2Cl)CC(O)CCC1=O [(2S,4S;2R,4R)-HNK]", "READING": "> 50 ng/mL"}

###

experiment: Plasma pharmacokinetics of; assay type: in vivo, Wistar rat; settings: male, Wistar, rat, plasma, ip, 40 mg/kg

{"COMPOUND": "CNC1(c2ccccc2Cl)CCCCC1=O (racemic) [(R,S)-Ket, (R,S)-Ketamine, reference compound]", "UNIT_TAG": "ng/mL", "concentration at 40 min": 2600}
{"COMPOUND": "NC1(c2ccccc2Cl)CCCCC1=O (racemic) [(R,S)-norKet, (R,S)-norketamine]", "UNIT_TAG": "ng/mL", "concentration at 40 min": 1340}

// data source = paper PMC5972519
